Test system: acidity
experiment.description: Inhibition of acidity (total acid output), Shay method
Format: in vivo, SD male rats
particulars: 30 mg/kg, intraduodenal, rat, 5 h, vs normal group
property: Inhibition rate, acidity (%)
Respond numerically; units are % and should not be typed.

>  <compound>
COc1ccnc(C[S+]([O-])c2nc3cc(-n4c(C)ccc4C)c(F)cc3[nH]2)c1 (centres unmarked)

>  <Inhibition rate, acidity [%]>
84.17

$$$$
>  <compound>
COc1ccnc(C[S+]([O-])c2nc3cc(-n4c(C)ccc4C)c(F)cc3[nH]2)c1C (centres unmarked)

>  <Inhibition rate, acidity [%]>
97.59

$$$$
>  <compound>
CCOc1ccnc(C[S+]([O-])c2nc3cc(-n4cccc4)c(F)cc3[nH]2)c1C (centres unmarked)

>  <Inhibition rate, acidity [%]>
82.00

$$$$
>  <compound>
COc1ccnc(C[S+]([O-])c2nc3cc(-n4cccc4)c(F)cc3[nH]2)c1C (centres unmarked)

>  <Inhibition rate, acidity [%]>
90.13

$$$$

# input for lookup
Form field: reported Inhibition rate, acidity of COc1c(C)cnc(C[S+]([O-])c2nc3cc(-n4c(C)ccc4C)c(F)cc3[nH]2)c1C (centres unmarked) 76.93
